system-under-test: PFKM+pocket (R315 to lysine) (Homo sapiens, UniProt P08237, R315K)
Sequence (P08237 whole entry R315K): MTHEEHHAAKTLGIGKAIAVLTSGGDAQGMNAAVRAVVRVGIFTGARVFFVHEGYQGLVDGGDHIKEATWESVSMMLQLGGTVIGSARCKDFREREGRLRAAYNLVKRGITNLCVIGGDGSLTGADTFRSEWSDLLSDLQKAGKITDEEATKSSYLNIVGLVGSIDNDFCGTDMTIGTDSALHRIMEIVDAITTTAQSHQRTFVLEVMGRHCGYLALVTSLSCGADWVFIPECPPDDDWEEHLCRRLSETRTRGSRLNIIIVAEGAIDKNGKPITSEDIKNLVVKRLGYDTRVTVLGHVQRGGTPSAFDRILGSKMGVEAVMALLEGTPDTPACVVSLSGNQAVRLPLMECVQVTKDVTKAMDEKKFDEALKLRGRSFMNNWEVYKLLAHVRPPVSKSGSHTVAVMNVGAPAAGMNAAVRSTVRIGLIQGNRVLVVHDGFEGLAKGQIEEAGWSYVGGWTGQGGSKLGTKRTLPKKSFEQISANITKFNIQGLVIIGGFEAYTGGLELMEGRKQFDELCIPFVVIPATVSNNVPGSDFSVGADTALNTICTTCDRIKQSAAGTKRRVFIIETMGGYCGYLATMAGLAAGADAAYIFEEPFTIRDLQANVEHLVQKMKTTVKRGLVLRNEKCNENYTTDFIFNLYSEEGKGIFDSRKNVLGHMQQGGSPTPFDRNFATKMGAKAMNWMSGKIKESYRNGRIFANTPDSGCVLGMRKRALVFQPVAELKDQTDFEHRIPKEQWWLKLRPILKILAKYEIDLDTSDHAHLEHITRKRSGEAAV
assay-procedure: Recombinant PFKM+pocket activity assay
assay-context: pH 7.0, 4.0 mM ATP, 1.0 mM F6P; mean ± SEM; read-out: EC50, activation of PFKM+pocket
assay-readout: EC50

Value lookup for EC50; key = CC(=O)Nc1ccc2c(c1)OCc1cc(-c3ccccc3)nn1C2 10.9 nM
